These entries and their values trace back to PubChem BioAssay AID1823.

- Procedure Text: counter-screen for Nox1 inhibitors: inhibitors of luminol chemiluminescence (AID 1823)
- Condition Notes: HRP/luminol/H2O2 chemiluminescence counterscreen; at 6.7 µM; hits give high values
About 70 (0.4%) of roughly 16,000 compounds were called active. Many of the other results were omitted from the sample, so actives are more common in it than they were.
Endpoint Label: inhibition (%)

>  <Structure Smiles String>
CSc1n[nH]c(=O)n1-c1cccc(C(F)(F)F)c1

>  <Readout Number>
1.69

$$$$
>  <Structure Smiles String>
O=C(Nc1ccc(F)cc1OC(F)(F)F)N1CCC(O)CC1

>  <Readout Number>
-1.8

$$$$
>  <Structure Smiles String>
N/C(=N\OC(=O)c1cccc(Cl)c1)c1ccc2nonc2c1

>  <Readout Number>
-0.67

$$$$
>  <Structure Smiles String>
CCCCCCNC(=O)NCCCCCC

>  <Readout Number>
-3.83

$$$$
>  <Structure Smiles String>
CCc1cccc(C)c1N(C(C)=O)C1=NCCC(=O)S1

>  <Readout Number>
-4.86

$$$$
>  <Structure Smiles String>
Oc1c(Cl)c(Cl)c(Cl)c2ccccc12

>  <Readout Number>
4.73

$$$$
>  <Structure Smiles String>
COc1cccc(C(=O)c2sc3nsc(SCc4ccc(F)cc4)c3c2N)c1

>  <Readout Number>
9.11

$$$$

====

- Procedure Text: counter-screen for Nox1 inhibitors: inhibitors of luminol chemiluminescence (AID 1823)
- Condition Notes: HRP/luminol/H2O2 chemiluminescence counterscreen; at 6.7 µM; hits give high values
Out of some 16,000 compounds screened, about 70 (0.4%) were called active. The full list was thinned out, with actives kept by preference.

>  <Compound>
CNC(=O)c1ccccc1Sc1ccccc1C(=O)NC

>  <inhibition [%]>
-0.03

$$$$
>  <Compound>
Cc1ccc(N=C2SC3(CC3)C(=O)N2c2ccc(C)cc2)cc1

>  <inhibition [%]>
-0.15

$$$$
>  <Compound>
COC(=O)c1sc(S(C)=O)c(-c2ccon2)c1C (configuration not stated)

>  <inhibition [%]>
0.42

$$$$
>  <Compound>
CC(C)NC(=O)NNc1c(Cl)cncc1Cl

>  <inhibition [%]>
-1.24

$$$$
>  <Compound>
CC(=O)NC(Cc1c[nH]c2ccccc12)C(=O)O (configuration not stated)

>  <inhibition [%]>
-1.35

$$$$
>  <Compound>
O=C1Nc2ccccc2C12NNC(=S)NN2

>  <inhibition [%]>
7.82

$$$$
>  <Compound>
NNC(=O)c1cc(OCC(F)(F)F)nc(OCC(F)(F)F)c1

>  <inhibition [%]>
9.46

$$$$

====

- Procedure Text: counter-screen for Nox1 inhibitors: inhibitors of luminol chemiluminescence (AID 1823)
- Condition Notes: HRP/luminol/H2O2 chemiluminescence counterscreen; at 6.7 µM; hits give high values
The whole screen tested about 16,000 compounds, of which about 70 (0.4%) were called active. The sample as a whole holds a higher share of actives than the screen did.
Listed below: inhibition values for each entry.

>  <Compound>
Cc1nn(C)c(C)c1Sc1nccc(-c2cccnc2)n1

>  <inhibition>
-8.26% (inactive)

$$$$
>  <Compound>
O=C(Cn1nnc2ccccc21)NCCSCc1ccco1

>  <inhibition>
-2.68% (inactive)

$$$$
>  <Compound>
CCOC(=O)NC(=O)/C(=C/NCc1cccs1)C(=O)OCC

>  <inhibition>
1.42% (inactive)

$$$$
>  <Compound>
CNC(=O)NNC(=O)Cn1nnc(N2CCCCC2)n1

>  <inhibition>
14.1% (inactive)

$$$$
>  <Compound>
C/C(=N\NC(N)=S)c1ccncc1

>  <inhibition>
15% (inactive)

$$$$
>  <Compound>
O=C(O)CC1(CC(=O)Nc2ccc(N3CCCCC3)cc2)CCCCC1

>  <inhibition>
-6.38% (inactive)

$$$$
>  <Compound>
Cc1oc(-c2ccc(Cl)cc2)cc1C(=O)N1CCOCC1

>  <inhibition>
-4.96% (inactive)

$$$$
>  <Compound>
N#CC(C#N)=CNc1c(F)cccc1Cl

>  <inhibition>
-4.02% (inactive)

$$$$
>  <Compound>
O=C(O)C1CC2CC1CCC2O (stereo unspecified)

>  <inhibition>
-5.03% (inactive)

$$$$
>  <Compound>
OCCNC(=S)Nc1ccccc1-c1ccccc1

>  <inhibition>
0.57% (inactive)

$$$$
>  <Compound>
O=C(CCSc1nc2ccccc2o1)N1CCc2cc([N+](=O)[O-])ccc21

>  <inhibition>
-3.32% (inactive)

$$$$
>  <Compound>
CC(CC(=O)O)Oc1ccc(Cl)cc1[N+](=O)[O-] (stereo unspecified)

>  <inhibition>
0.37% (inactive)

$$$$
>  <Compound>
O=C1COCC(=O)N1c1ccc2c(c1)OCO2

>  <inhibition>
-6.14% (inactive)

$$$$
>  <Compound>
O=[N+]([O-])c1cc(C(F)(F)F)ccc1OCCO

>  <inhibition>
-3.63% (inactive)

$$$$
>  <Compound>
O=C(Nc1ccc(C(F)(F)F)cn1)c1ccc(Oc2cc(Cl)cc(Cl)c2)o1

>  <inhibition>
0.64% (inactive)

$$$$
>  <Compound>
Cc1cc(C)nc(NC(=S)c2ccc(NC(=O)/C=C/C(=O)O)cc2)n1

>  <inhibition>
-2.67% (inactive)

$$$$
>  <Compound>
CN(Cc1nnc(-c2ccc3ccccc3c2)o1)c1nnc(C(F)(F)F)s1

>  <inhibition>
-4.66% (inactive)

$$$$
>  <Compound>
O=c1c2cc(-c3ccccc3)sc2nc2n1N=C(c1cccs1)CS2

>  <inhibition>
-0.02% (inactive)

$$$$
>  <Compound>
N/C(Cc1cccs1)=N\OC(=O)c1ccccc1

>  <inhibition>
-0.54% (inactive)

$$$$
>  <Compound>
CC1=NOC(=O)/C1=C\c1ccccc1

>  <inhibition>
3.43% (inactive)

$$$$
>  <Compound>
N#C/C=C/c1ccc(C(F)(F)F)cc1[N+](=O)[O-]

>  <inhibition>
1.6% (inactive)

$$$$
>  <Compound>
CCOC(=O)c1c[nH]n2c(=O)c3c(nc12)CCC3

>  <inhibition>
0.29% (inactive)

$$$$
>  <Compound>
Cc1c(C)c(C)c(CSC(=N)CC#N)c(C)c1C

>  <inhibition>
-1.01% (inactive)

$$$$
>  <Compound>
CCCS(=O)(=O)c1csc(C(=O)OC)c1N/N=C/c1cccs1

>  <inhibition>
1.56% (inactive)

$$$$
>  <Compound>
CCOC(=O)NC(=O)/C(=C/NC(C)C)C(=O)OCC

>  <inhibition>
2.4% (inactive)

$$$$
>  <Compound>
N#CCCSc1sc(=S)sc1SCCC#N

>  <inhibition>
3.43% (inactive)

$$$$
>  <Compound>
O=C(O)CCc1cccnc1

>  <inhibition>
-4.95% (inactive)

$$$$
>  <Compound>
Cn1ncc(Br)c1NC(=O)C(C)(C)C

>  <inhibition>
4.37% (inactive)

$$$$
>  <Compound>
COC(=O)C(C#N)c1ccc(C(F)(F)F)cc1[N+](=O)[O-] (stereo unspecified)

>  <inhibition>
4.34% (inactive)

$$$$
>  <Compound>
N#CNC(N)=Nc1cc(Cl)ccc1Cl

>  <inhibition>
-0.88% (inactive)

$$$$
>  <Compound>
Cn1nccc1NC(=O)CC(CC(=O)O)c1ccccc1 (stereo unspecified)

>  <inhibition>
-2.7% (inactive)

$$$$
>  <Compound>
O=C(Nc1ccccc1C(=O)NCc1c(F)cccc1Cl)c1ccccc1Cl

>  <inhibition>
4.86% (inactive)

$$$$
>  <Compound>
O=S(=O)(Oc1cccc(C(F)(F)F)c1)c1cc(S(=O)(=O)c2ccccc2)cs1

>  <inhibition>
3.95% (inactive)

$$$$
>  <Compound>
O=c1[nH]/c(=C/c2ccc(OC(F)(F)F)cc2)c(=O)[nH]/c1=C/c1ccc(OC(F)(F)F)cc1

>  <inhibition>
0.16% (inactive)

$$$$
>  <Compound>
N#C/C(=C\C=C\c1ccccc1)c1nc2ccccc2[nH]1

>  <inhibition>
2.56% (inactive)

$$$$
>  <Compound>
CC(C)(C)NC(=O)N/N=C/c1[nH]ncc1Br

>  <inhibition>
-2.94% (inactive)

$$$$
>  <Compound>
N#Cc1ccc(Oc2ccc(Cl)cc2)c([N+](=O)[O-])c1

>  <inhibition>
-1.59% (inactive)

$$$$
>  <Compound>
NC(=O)c1sccc1Br

>  <inhibition>
-1.3% (inactive)

$$$$
>  <Compound>
O=c1[nH]cc(Br)c(=O)[nH]1

>  <inhibition>
-0.43% (inactive)

$$$$
>  <Compound>
COC(=O)c1sccc1NC(=S)Nc1ccc(C)cc1

>  <inhibition>
-25.1% (inactive)

$$$$
>  <Compound>
CCOC(=O)C1=C(C)NC(C)=C(C(=O)OCC)C1c1ccccn1

>  <inhibition>
0.07% (inactive)

$$$$
>  <Compound>
CCOC(=O)O/N=C(\N)c1ccc(Cl)cc1

>  <inhibition>
-3.37% (inactive)

$$$$
>  <Compound>
O=C(NCCO)NCCSc1ccc(F)cc1

>  <inhibition>
-2.48% (inactive)

$$$$
>  <Compound>
O=C(CSc1ccc(Cl)cc1)NCCSCc1ccco1

>  <inhibition>
-0.61% (inactive)

$$$$
>  <Compound>
CS(=O)(=O)c1ccc(C(=O)Nc2cccc(Cl)c2)cc1

>  <inhibition>
2.61% (inactive)

$$$$
>  <Compound>
O=C(NCc1csc(-c2cccs2)n1)Nc1ccccc1-c1ccccc1

>  <inhibition>
0.51% (inactive)

$$$$
>  <Compound>
CCOC(=O)C(NC(=O)c1ccco1)(Nc1cc(C)ccn1)C(F)(F)F (stereo unspecified)

>  <inhibition>
-2.71% (inactive)

$$$$
>  <Compound>
CCCCCCCCCCCCCC#CC(O)C(N)CO (stereo unspecified)

>  <inhibition>
2.24% (inactive)

$$$$
>  <Compound>
Cc1onc(-c2ccccc2Cl)c1NC(=O)N1c2ccc(F)cc2CCC1C (stereo unspecified)

>  <inhibition>
8.92% (inactive)

$$$$
>  <Compound>
CC(C)(C)c1ccc(C(=O)CC(N)=O)cc1

>  <inhibition>
6.19% (inactive)

$$$$
>  <Compound>
CSc1nc(-n2nc(C)cc2C)nc(-c2ccco2)c1C#N

>  <inhibition>
1.13% (inactive)

$$$$
